Origin of values: patent US12252488B2

pIC50: −log10 of the molar value.
Quick note: these are pIC50 numbers for system: HPK1 (Homo sapiens)
Sequence (Q92918 whole entry): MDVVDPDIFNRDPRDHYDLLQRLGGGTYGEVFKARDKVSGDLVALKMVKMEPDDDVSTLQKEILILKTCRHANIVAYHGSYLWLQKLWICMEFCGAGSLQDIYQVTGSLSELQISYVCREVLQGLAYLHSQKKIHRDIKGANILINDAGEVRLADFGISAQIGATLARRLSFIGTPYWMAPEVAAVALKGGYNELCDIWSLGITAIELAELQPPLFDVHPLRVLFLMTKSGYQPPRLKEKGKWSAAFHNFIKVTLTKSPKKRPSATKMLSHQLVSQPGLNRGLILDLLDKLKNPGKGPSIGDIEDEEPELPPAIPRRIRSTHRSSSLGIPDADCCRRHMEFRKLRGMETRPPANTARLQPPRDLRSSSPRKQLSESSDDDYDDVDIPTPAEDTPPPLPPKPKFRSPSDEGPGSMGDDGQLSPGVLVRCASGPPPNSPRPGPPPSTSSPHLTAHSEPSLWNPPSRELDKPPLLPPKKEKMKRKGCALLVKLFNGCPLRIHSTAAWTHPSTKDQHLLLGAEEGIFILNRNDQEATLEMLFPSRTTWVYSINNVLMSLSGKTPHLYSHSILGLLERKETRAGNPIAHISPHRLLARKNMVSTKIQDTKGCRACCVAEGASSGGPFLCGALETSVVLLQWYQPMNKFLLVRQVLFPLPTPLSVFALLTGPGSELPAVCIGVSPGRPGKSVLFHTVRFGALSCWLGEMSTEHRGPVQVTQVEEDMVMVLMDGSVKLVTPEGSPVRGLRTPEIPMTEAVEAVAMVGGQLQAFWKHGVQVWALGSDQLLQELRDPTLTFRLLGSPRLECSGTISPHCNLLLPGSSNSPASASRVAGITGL

The examples below pair each entry with its known result.
COMPOUND	pIC50
CCOc1cc(-c2cc(Nc3ccc(N4CCC(O)CC4)cn3)c3c(=O)[nH]ccc3n2)c(F)cc1C(=O)N1CCCCC1	6.00 to 7.00
O=C(c1ccc(-c2cc(Nc3ccc(N4CCC(O)CC4)cn3)c3c(=O)[nH]ccc3n2)c(F)c1)N1CCC1	6.00 to 7.00
COc1cc(-c2cc(Nc3cnn(C)c3)c3c(=O)[nH]ccc3n2)c(F)cc1C(=O)N1CCCCC1	6.00 to 7.00

Recall the recorded pIC50 for "COc1cc(-c2cc(Nc3ccc(N4CCC(OC)CC4)cn3)c3c(=O)[nH]ccc3n2)c(F)cc1C(=O)N1CCCCC1" with HPK1 (Homo sapiens) and state it.
6.00 to 7.00

Lab note: need pIC50 with HPK1 (Homo sapiens) for entry "O=C(O)c1ccc(-c2cc(Nc3ccc(N4CCC(O)CC4)cn3)c3c(=O)[nH]ccc3n2)c(F)c1" , please look it up.
≥ 7.00

Quick check: pIC50 on HPK1 (Homo sapiens), item "COc1cc(-c2cc(Nc3ccc(N4CCN(C)CC4)cn3)c3c(=O)[nH]ccc3n2)c(F)cc1C(=O)N1CCCCC1" ?
6.00 to 7.00

# query: pIC50 | item "O=C(c1cc(F)c(-c2cc(Nc3ccc(N4CCC(O)CC4)cn3)c3c(=O)[nH]ccc3n2)cc1F)N1CCCCC1" | system: HPK1 (Homo sapiens)
6.00 to 7.00

What pIC50 appears in the records for this compound with HPK1 (Homo sapiens)? "O=c1[nH]ccc2nc(-c3cc4cc[nH]c4cc3F)cc(Nc3ccc(N4CCC(O)CC4)cn3)c12"
6.00 to 7.00

pIC50 of "O=C(O)c1c[nH]c(=O)c2c(Nc3ccc(N4CCC(O)CC4)cn3)cc(-c3c(F)cccc3F)nc12" on HPK1 (Homo sapiens)?
< 6.00

Query for HPK1 (Homo sapiens): what pIC50 does the record show for CN(C)C1CCc2cc(F)c(-c3cc(Nc4ccc(N5CCC(O)CC5)cn4)c4c(=O)[nH]ccc4n3)cc21 (stereo not drawn) ?
≥ 7.00

What is its pIC50 for HPK1 (Homo sapiens)? Entry: "CC(C)c1ccc(F)c(-c2cc(Nc3ccc(N4CCC(O)CC4)cn3)c3c(=O)[nH]ccc3n2)c1"
6.00 to 7.00

Request - read-out pIC50 | tested on HPK1 (Homo sapiens) | compound "COc1cc(-c2cc(Nc3ccc(C(=O)N4CCCC4)cc3)c3c(=O)[nH]ccc3n2)c(F)cc1C(=O)N1CCCCC1"
6.00 to 7.00

# value lookup — system HPK1 (Homo sapiens), readout pIC50, item "CC(C)Cc1cc(Nc2ccc(N3CCC(O)CC3)cn2)c2c(=O)[nH]ccc2n1"
6.00 to 7.00

Param readout= pIC50; system= HPK1 (Homo sapiens); entry= "O=C(c1cc(F)c(-c2cc(Nc3ccc(N4CCC(O)CC4)cn3)c3c(=O)[nH]ccc3n2)cc1C1CC1)N1CCCCC1" ; returns value.
≥ 7.00

Recorded pIC50 for O=C(Nc1ccc(-c2cc(Nc3ccc(N4CCC(O)CC4)cn3)c3c(=O)[nH]ccc3n2)c(F)c1)[C@H]1C[C@H]2CC[C@@H]1C2 (single isomer, unassigned) [I-275] with HPK1 (Homo sapiens), please?
≥ 7.00
